Here, compounds appear alongside Ki reported for Adenosine receptor A2a (Homo sapiens, UniProt P29274) in the literature.

{"COMPOUND": "CCNC(=O)[C@H]1O[C@@H](n2cnc3c(NNC(=O)c4ccco4)ncnc32)[C@H](O)[C@@H]1O", "TARGET SYSTEM": "Adenosine receptor A2a (Homo sapiens, UniProt P29274)", "QUALIFIER SIGN": "=", "Ki / nM": 1550}
{"COMPOUND": "CCC(C)n1cnc2ncnc(N)c21 (stereo not given)", "TARGET SYSTEM": "Adenosine receptor A2a (Homo sapiens, UniProt P29274)", "QUALIFIER SIGN": ">", "Ki / nM": 100000}
{"COMPOUND": "CCCn1c(=O)c2[nH]c(-c3ccc(OCC(=O)N4CCN(c5ccccc5)CC4)cc3)cc2n(C)c1=O", "TARGET SYSTEM": "Adenosine receptor A2a (Homo sapiens, UniProt P29274)", "QUALIFIER SIGN": "=", "Ki / nM": 316}
{"COMPOUND": "Nc1nc(-c2ccccc2[N+](=O)[O-])c2ccccc2n1", "TARGET SYSTEM": "Adenosine receptor A2a (Homo sapiens, UniProt P29274)", "QUALIFIER SIGN": ">", "Ki / nM": 10000}
{"COMPOUND": "CCCCC#Cc1nc(NCc2cccc(Br)c2)c2ncn([C@@H]3SC[C@@H](O)[C@H]3O)c2n1", "TARGET SYSTEM": "Adenosine receptor A2a (Homo sapiens, UniProt P29274)", "QUALIFIER SIGN": "=", "Ki / nM": 3910}
{"COMPOUND": "COc1ccccc1C(=O)Nc1nc(-c2ccccc2)n[nH]1", "TARGET SYSTEM": "Adenosine receptor A2a (Homo sapiens, UniProt P29274)", "QUALIFIER SIGN": "=", "Ki / nM": 200}
{"COMPOUND": "CCCn1cc2c(nc(NC(=O)C(c3ccccc3)c3ccccc3)n3nc(-c4ccco4)nc23)n1", "TARGET SYSTEM": "Adenosine receptor A2a (Homo sapiens, UniProt P29274)", "QUALIFIER SIGN": "=", "Ki / nM": 46.5}
{"COMPOUND": "CCCn1c(=O)c2c(nc3cc(C(C)(C)C)ccn32)n(Cc2ccccc2)c1=O", "TARGET SYSTEM": "Adenosine receptor A2a (Homo sapiens, UniProt P29274)", "QUALIFIER SIGN": "=", "Ki / nM": 385}
{"COMPOUND": "O=C(COc1ccccc1)Nc1nc2nn(CCc3ccccc3)cc2c2nc(-c3ccco3)nn12", "TARGET SYSTEM": "Adenosine receptor A2a (Homo sapiens, UniProt P29274)", "QUALIFIER SIGN": "=", "Ki / nM": 40}
{"COMPOUND": "Nc1nc(NCCN2CCN(c3ccc(F)cc3F)CC2)cc2nc(-c3ccco3)nn12", "TARGET SYSTEM": "Adenosine receptor A2a (Homo sapiens, UniProt P29274)", "QUALIFIER SIGN": "=", "Ki / nM": 1.5}
{"COMPOUND": "CCCn1c(=O)c2[nH]c(-c3cc(OCC(=O)c4ccc(C)cc4)nn3C)nc2n(CCC)c1=O", "TARGET SYSTEM": "Adenosine receptor A2a (Homo sapiens, UniProt P29274)", "QUALIFIER SIGN": "=", "Ki / nM": 19.1}
{"COMPOUND": "Nc1ncnc2c1ncn2CCc1ccccc1", "TARGET SYSTEM": "Adenosine receptor A2a (Homo sapiens, UniProt P29274)", "QUALIFIER SIGN": "=", "Ki / nM": 9600}
{"COMPOUND": "Nc1nc(-c2ccco2)c2ncn(Cc3cccc(C(=O)O)c3)c2n1", "TARGET SYSTEM": "Adenosine receptor A2a (Homo sapiens, UniProt P29274)", "QUALIFIER SIGN": "=", "Ki / nM": 4100}
{"COMPOUND": "CCCn1c(=O)c2[nH]c(-c3ccc(OCC(=O)N4CCC(c5ccccc5)CC4)cc3)cc2n(CCC)c1=O", "TARGET SYSTEM": "Adenosine receptor A2a (Homo sapiens, UniProt P29274)", "QUALIFIER SIGN": "=", "Ki / nM": 589}
{"COMPOUND": "CCCn1c(=O)c2[nH]c(-c3cnn(Cc4nc(-c5ccc(C)cc5)no4)c3)nc2n(CCC)c1=O", "TARGET SYSTEM": "Adenosine receptor A2a (Homo sapiens, UniProt P29274)", "QUALIFIER SIGN": "=", "Ki / nM": 3000}
{"COMPOUND": "COc1ccc(C(=O)Nc2nc(-c3ccccc3)nc3nn(CCc4ccccc4)cc23)cc1", "TARGET SYSTEM": "Adenosine receptor A2a (Homo sapiens, UniProt P29274)", "QUALIFIER SIGN": "=", "Ki / nM": 1140}
{"COMPOUND": "Cn1cc2c(NC(=O)Nc3cccc(Cl)c3)nc(-c3ccccc3)nc2n1", "TARGET SYSTEM": "Adenosine receptor A2a (Homo sapiens, UniProt P29274)", "QUALIFIER SIGN": ">", "Ki / nM": 10000}
{"COMPOUND": "COc1ccc(-c2cn3cc(-c4ccco4)ccc3n2)cc1OC", "TARGET SYSTEM": "Adenosine receptor A2a (Homo sapiens, UniProt P29274)", "QUALIFIER SIGN": "=", "Ki / nM": 238}
{"COMPOUND": "CC(=O)Nc1cc(-c2cccs2)nc(-c2cccs2)n1", "TARGET SYSTEM": "Adenosine receptor A2a (Homo sapiens, UniProt P29274)", "QUALIFIER SIGN": "=", "Ki / nM": 24.6}
{"COMPOUND": "CC[C@@H]1CN2C(=O)N(Cc3ccccc3)c3nc(-c4cc(C)nn4C)[nH]c3C2=N1", "TARGET SYSTEM": "Adenosine receptor A2a (Homo sapiens, UniProt P29274)", "QUALIFIER SIGN": ">", "Ki / nM": 5000}

====

Here, compounds appear alongside Ki reported for UniProtKB P29274 in the literature.

{"COMPOUND": "CC(=O)Nc1cc(N2CCCC2C)nc(-n2nc(C)cc2C)n1 (stereo not given)", "UNITS LABEL": "nM", "QUALIFIER SIGN": "=", "Ki": 28}
{"COMPOUND": "Nc1ncnc2c1nc(C#Cc1ccccc1)n2[C@H]1C[C@H](O)[C@@H](CO)O1", "UNITS LABEL": "nM", "QUALIFIER SIGN": "=", "Ki": 1990}
{"COMPOUND": "Nc1nc2c(cnn2CCc2ccc(NC(=O)CCCCCCC(=O)NO)cc2)c2nc(-c3ccco3)nn12", "UNITS LABEL": "nM", "QUALIFIER SIGN": "=", "Ki": 4.9}
{"COMPOUND": "Nc1nc(Cc2ccccc2F)nc2cn(-c3ccccc3)nc12", "UNITS LABEL": "nM", "QUALIFIER SIGN": "=", "Ki": 154}
{"COMPOUND": "Cc1ccc(NC(=O)Nc2nc3nn(C)cc3c3nc(-c4ccco4)nn23)s1", "UNITS LABEL": "nM", "QUALIFIER SIGN": "=", "Ki": 920}
{"COMPOUND": "CNC(=O)[C@]12C[C@@H]1[C@@H](n1cnc3c(NCc4ccccc4C)nc(Cl)nc31)[C@H](O)[C@@H]2O", "UNITS LABEL": "nM", "QUALIFIER SIGN": "=", "Ki": 3800}
{"COMPOUND": "Cc1cc2[nH]c3cnccc3c2c(C)c1O", "UNITS LABEL": "nM", "QUALIFIER SIGN": ">", "Ki": 100000}
{"COMPOUND": "CCCn1c(=O)c2[nH]c(-c3cnn(Cc4nc(-c5ccccc5OC)no4)c3)nc2n(CCC)c1=O", "UNITS LABEL": "nM", "QUALIFIER SIGN": "=", "Ki": 1600}
{"COMPOUND": "Cn1c(=O)c2c(cc(C#Cc3cccc(Cl)c3)n2C)n(C)c1=O", "UNITS LABEL": "nM", "QUALIFIER SIGN": ">", "Ki": 10000}
{"COMPOUND": "O=C(O)c1cnc(NCc2ccccc2)n2nc(-c3ccco3)nc12", "UNITS LABEL": "nM", "QUALIFIER SIGN": "=", "Ki": 3660}

====

Here, molecules appear alongside log10(Ki) reported for Adenosine receptor A2a (Homo sapiens, UniProt P29274) in the literature.
RECORDED ENDPOINT: log10(Ki) (log10 of the value in nM)

{"MOLECULE": "Nc1nc2c(cnn2CCCCCCC(=O)NO)c2nc(-c3ccco3)nn12", "log10(Ki)": 1.00}
{"MOLECULE": "Cc1noc(-c2sc(NC(=O)CC(C)C)nc2-c2ccccc2)n1", "log10(Ki)": 1.68}
{"MOLECULE": "Cc1cc(C(=O)Nc2nccs2)ccc1NC(=O)CC(C)(C)C", "log10(Ki)": 1.28}
{"MOLECULE": "CN(c1nc2nn(C)cc2c2nc(-c3ccco3)nn12)C1CCCCC1", "log10(Ki)": 3.44}
{"MOLECULE": "COCCn1c(=O)c2c(nc(Cc3ccccc3)n2C)n(Cc2ccco2)c1=O", "log10(Ki)": 2.96}
{"MOLECULE": "COc1cccc2cc(-c3ccc([N+](=O)[O-])cc3)c(=O)oc12", "log10(Ki)": 4.77}
